These entries and their values trace back to the supplement of paper PMC8728848.

Target: Neu5Ac(b2-6)GalNAc
Test: glycan array binding signal (z-score within array); higher = stronger binding
Conditions: glycan notation: IUPAC condensed, linker removed
This excerpt belongs to a sample that is enriched for the strongest signals.
glycan array binding signal (z-score) values for the binders below.

{"binder": "FimD (Bordetella pertussis) (protein) MPARVISFCGAALAVWAGLAVQPAMAVDPPVDCGRALGLHFWSSASLISDQTPDGTLIGKPVVGRSLLSKSCKVPDDIKEDLSDNHDGEPVDIVLELGSNYKIRPQSYGHPGIVVDLPFGSTEETGIAIYIDFGSSPMQKVGERQWLYPQKGEVLFDVLTINGDNAEVRYQAIKVGPLKRPRKLVLSQFPNLFTYKWVFMRGTSQERVLAQGTIDTDVATSTIDLKTCRYTSQTVSLPIIQRSALTGVGTTLGMTDFQMPFWCYGWPKVSVYMSATKTQTGVDGVALPATGQAAGMASGVGVQLINGKTQQPVKLGLQGKIALPEAQQTESATFSLPMKAQYYQTSTSTSAGKLSVTYAVTLNYD", "glycan array binding signal (z-score)": -0.348}
{"binder": "Epa19 (Candida glabrata) (protein) MGSSHHHHHHSSGLVPRGSHMASSKDPTRFPIGCSPQVLKTQPGLAVKLYSYGHPVPGCSYITYQYPDFPRSGYKKERKLADITGVNGKIDIDLKPNDPCRVLTGHLPSNYNYPDTLTYTNFTMILYGYFQPKVTGYHTFNLEADDLLFMNLGAGNAFDCCKAESTLDNFGNYQSYSLWGSDYAKANITVFLVSGVYYPIRLFYVNRDNNAVIDFSFTTEFDKEKVHDFTSYFFSASDGEQCPGSV", "glycan array binding signal (z-score)": -0.238}
